- Measurement Target: human MRGPRX2 (Homo sapiens)
- Construct: expressed in transfected cells
- Sequence (Q96LB1 1-330): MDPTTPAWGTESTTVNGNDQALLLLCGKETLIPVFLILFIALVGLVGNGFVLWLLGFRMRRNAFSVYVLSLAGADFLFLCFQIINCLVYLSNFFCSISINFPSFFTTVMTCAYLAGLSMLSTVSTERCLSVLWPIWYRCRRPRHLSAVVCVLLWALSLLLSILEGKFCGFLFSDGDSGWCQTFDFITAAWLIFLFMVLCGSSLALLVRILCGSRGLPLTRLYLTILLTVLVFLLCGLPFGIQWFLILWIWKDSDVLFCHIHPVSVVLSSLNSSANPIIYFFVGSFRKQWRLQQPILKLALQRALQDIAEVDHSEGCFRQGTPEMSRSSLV
- Method Summary: MRGPRX2 antagonist activity, IP-One HTRF assay in CHO cells expressing human MRGPRX2 versus Cortistatin-14
- Type: cell-based
- Test Context: CHO cells stably expressing human MRGPRX2; versus 0.3 uM Cortistatin-14 agonist; IP-1 HTRF readout; read-out: MRGPR2 Antagonist Activity

{"columns": ["Compound", "IC50"],
 "data": [
  ["CCNc1nc(N[C@H]2CC[C@@H](NC(=O)c3ccc(OC)cc3)CC2)cc(C(F)(F)F)n1", "> 2500 nM"],
  ["CN(c1ccc(C(=O)N[C@H]2CC[C@@H](Nc3cc(C(F)(F)F)nc(C(F)(F)F)c3)CC2)cc1)S(C)(=O)=O", "100 to 500 nM"],
  ["O=C(N[C@H]1CC[C@@H](Nc2cc(Cl)nc(C(F)(F)F)c2)CC1)c1ccc(F)cc1", "501 to 1000 nM"],
  ["O=C(N[C@H]1CC[C@@H](Nc2cc(C(F)(F)F)nc(C(F)(F)F)c2)CC1)c1ccc2c(c1)CCCC2", "501 to 1000 nM"],
  ["N#Cc1ccc(N[C@H]2CC[C@@H](NC(=O)c3cn[nH]c3Cl)CC2)cc1C(F)(F)F", "< 100 nM"],
  ["COc1cccc(C(=O)N[C@H]2CC[C@@H](Nc3cc(C(F)(F)F)nc(C(F)(F)F)c3)CC2)c1", "100 to 500 nM"],
  ["CN1CCN(C(=O)N[C@H]2CC[C@@H](Nc3cc(C(F)(F)F)nc(C(F)(F)F)c3)CC2)CC1", "1000 to 2500 nM"],
  ["Cc1ccoc1C(=O)N[C@H]1CC[C@@H](Nc2cc(C(F)(F)F)nc(C(F)(F)F)c2)CC1", "1000 to 2500 nM"],
  ["N#Cc1ccc(N[C@H]2CC[C@@H](NC(=O)c3ccnc4cn[nH]c34)CC2)cc1C(F)(F)F", "< 100 nM"],
  ["CNc1cc(C(=O)N[C@H]2CC[C@@H](Nc3cc(C)c(C#N)c(C(F)(F)F)c3)CC2)ccn1", "< 100 nM"],
  ["CN1CCc2c(cccc2C(=O)N[C@H]2CC[C@@H](Nc3cc(C(F)(F)F)nc(C(F)(F)F)c3)CC2)C1", "1000 to 2500 nM"],
  ["CN1CCCc2c(C(=O)N[C@H]3CC[C@@H](Nc4cc(C(F)(F)F)nc(C(F)(F)F)c4)CC3)cccc21", "1000 to 2500 nM"],
  ["CN(C)C(=O)N[C@H]1CC[C@@H](Nc2cc(C(F)(F)F)nc(C(F)(F)F)c2)CC1", "1000 to 2500 nM"],
  ["Cc1cc(N[C@H]2CC[C@@H](NC(=O)c3ccc(NCC(F)F)cc3)CC2)cc(C(F)(F)F)c1C#N", "< 100 nM"],
  ["CCn1nccc1C(=O)N[C@H]1CC[C@@H](Nc2cc(C(F)(F)F)nc(C(F)(F)F)c2)CC1", "501 to 1000 nM"],
  ["COc1ccc(C(=O)N[C@H]2CC[C@@H](Nc3ccc(F)c(C(F)(F)F)c3)CC2)cc1", "501 to 1000 nM"],
  ["N#Cc1ccc(N[C@H]2CC[C@@H](NC(=O)c3ccc(F)cc3)CC2)cc1C(F)(F)F", "100 to 500 nM"],
  ["Cc1cc(N[C@H]2CC[C@@H](NC(=O)c3cn(CC(F)F)nc3C)CC2)cc(C(F)(F)F)c1C#N", "< 100 nM"],
  ["O=C(N[C@H]1CC[C@@H](Nc2cc(C(F)(F)F)nc(C(F)(F)F)c2)CC1)c1ccc(Cl)cc1", "501 to 1000 nM"],
  ["O=C(N[C@H]1CC[C@@H](Nc2cc(C(F)(F)F)nc(C(F)(F)F)c2)CC1)c1nc2ccccc2[nH]1", "1000 to 2500 nM"],
  ["Cc1cccc2[nH]cc(C(=O)N[C@H]3CC[C@@H](Nc4ccc(C#N)c(C(F)(F)F)c4)CC3)c12", "< 100 nM"],
  ["CN1CCC(C(=O)N[C@H]2CC[C@@H](Nc3cc(C(F)(F)F)nc(C(F)(F)F)c3)CC2)C1 (stereo partly shown)", "1000 to 2500 nM"],
  ["COc1cccc(C(=O)N[C@H]2CC[C@@H](Nc3ccc(C#N)c(C(F)(F)F)c3)CC2)c1", "100 to 500 nM"],
  ["O=C(N[C@H]1CC[C@@H](Nc2cc(C(F)(F)F)nc(N3CCCC3)n2)CC1)c1ccc(F)cc1", "1000 to 2500 nM"],
  ["CN(C)c1ccc(C(=O)N[C@H]2CC[C@@H](Nc3cc(N(C)C)nc(C(F)(F)F)c3)CC2)cc1", "1000 to 2500 nM"],
  ["N#Cc1ccc(N[C@H]2CC[C@@H](NC(=O)c3c[nH]c4ncccc34)CC2)cc1C(F)(F)F", "< 100 nM"],
  ["O=C(N[C@H]1CC[C@@H](Nc2cc(C(F)(F)F)nc(C(F)(F)F)c2)CC1)c1cccc2ncsc12", "100 to 500 nM"],
  ["COc1ccc(C(=O)N[C@H]2CC[C@@H](Nc3cc(C(F)(F)F)nc(C(F)(F)F)c3)CC2)cc1", "100 to 500 nM"],
  ["N=C(N)Nc1ccc(C(=O)N[C@H]2CC[C@@H](Nc3cc(C(F)(F)F)nc(C(F)(F)F)c3)CC2)cc1 (single isomer, unassigned) [4-55]", "< 100 nM"],
  ["O=C(N[C@H]1CC[C@@H](Nc2cc(C(F)(F)F)nc(C(F)(F)F)c2)CC1)c1ccccc1", "501 to 1000 nM"],
  ["Cn1ccc2c(C(=O)N[C@H]3CC[C@@H](Nc4ccc(C#N)c(C(F)(F)F)c4)CC3)ccnc21", "< 100 nM"]
]}

Origin of values: patent US11952346B2
